Exercise: for every item that follows, state its recorded % engagement HIRA_C673.
Target: HIRA_C673 (Homo sapiens)
Construct: endogenous in cells; host or cells: 22Rv1
Sequence (P54198 whole entry): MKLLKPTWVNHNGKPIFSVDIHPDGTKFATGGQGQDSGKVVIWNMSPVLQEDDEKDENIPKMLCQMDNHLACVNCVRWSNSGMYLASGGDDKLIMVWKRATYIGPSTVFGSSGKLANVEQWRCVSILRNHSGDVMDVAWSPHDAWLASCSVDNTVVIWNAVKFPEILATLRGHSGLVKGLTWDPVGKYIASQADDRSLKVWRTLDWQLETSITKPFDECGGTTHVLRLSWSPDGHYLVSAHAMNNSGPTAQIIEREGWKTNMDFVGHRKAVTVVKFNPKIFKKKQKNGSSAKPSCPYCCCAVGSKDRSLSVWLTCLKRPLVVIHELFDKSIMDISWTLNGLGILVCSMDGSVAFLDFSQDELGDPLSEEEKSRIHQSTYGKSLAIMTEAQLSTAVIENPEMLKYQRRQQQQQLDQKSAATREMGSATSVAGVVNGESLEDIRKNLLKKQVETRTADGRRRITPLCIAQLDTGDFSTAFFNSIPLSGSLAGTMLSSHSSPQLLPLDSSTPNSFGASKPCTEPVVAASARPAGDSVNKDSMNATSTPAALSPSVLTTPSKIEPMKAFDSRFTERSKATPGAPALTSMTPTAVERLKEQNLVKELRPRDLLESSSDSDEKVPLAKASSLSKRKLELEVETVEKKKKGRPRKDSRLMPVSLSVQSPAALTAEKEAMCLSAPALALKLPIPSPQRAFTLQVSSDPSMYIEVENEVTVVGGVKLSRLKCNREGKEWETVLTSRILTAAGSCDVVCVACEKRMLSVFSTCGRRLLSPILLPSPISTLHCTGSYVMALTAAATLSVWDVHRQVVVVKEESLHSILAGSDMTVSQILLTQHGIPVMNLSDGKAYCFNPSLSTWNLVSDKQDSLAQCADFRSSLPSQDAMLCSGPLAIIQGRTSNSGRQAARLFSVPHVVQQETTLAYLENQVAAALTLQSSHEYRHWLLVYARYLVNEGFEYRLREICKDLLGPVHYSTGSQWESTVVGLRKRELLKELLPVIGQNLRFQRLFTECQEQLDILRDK
Test: IA-DTB cysteine engagement
Assay type: binding
Settings: 22Rv1 cells, 20 μM probe, 1 h, relative to DMSO
Answers are plain numbers, in %.

The cases that follow already have their % engagement HIRA_C673 on record.
| Molecule | % engagement HIRA_C673 [%] |
| --- | --- |
| C=CC(=O)N1C[C@@H](c2ccc(Br)cc2)[C@H]1C(=O)Nc1cccc2cccnc12 [MY-1A] | −12 |
| C=CC(=O)N1C[C@H](c2ccc(Br)cc2)[C@H]1C(=O)Nc1cccc2cccnc12 [MY-3A] | 11.5 |
| C=CC(=O)N1C[C@H](c2ccc(Br)cc2)[C@@H]1C(=O)Nc1cccc2cccnc12 [MY-1B] | 3 |

Would you kindly share the measured % engagement HIRA_C673 for C=CC(=O)N1C[C@H](c2ccc(Br)cc2)[C@H]1C(=O)Nc1cccc2cccnc12 [MY-3B] ? 73

Source: patent US20250034216A1
